biological target: human galectin-3 (hGal-3) (Homo sapiens, UniProt P17931); construct: P.K. and P.B. prepared recombinant full-length hGal-3 and contributed to the ITC experiments; made in house; assay: Isothermal titration calorimetry (ITC) of sugar analogs with recombinant hGal-3; format: binding; conditions: 27 °C, number of binding sites per hGal-3 monomer, errors less than 4%
Sequence (P17931 whole entry): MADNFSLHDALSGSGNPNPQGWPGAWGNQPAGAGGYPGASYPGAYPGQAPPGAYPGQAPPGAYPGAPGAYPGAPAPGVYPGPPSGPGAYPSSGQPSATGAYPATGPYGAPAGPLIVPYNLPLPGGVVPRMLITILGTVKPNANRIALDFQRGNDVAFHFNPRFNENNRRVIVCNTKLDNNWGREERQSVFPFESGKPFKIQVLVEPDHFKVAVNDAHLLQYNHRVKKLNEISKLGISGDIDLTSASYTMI
Answer each item with its documented n Sites/ Monomer.

The following compounds have reported results that may help.
| compound | assay.system | readout.name | obs.value |
| --- | --- | --- | --- |
| C#CCO[C@@H]1O[C@H](CO)[C@@H](O[C@@H]2O[C@H](CO)[C@H](O)[C@H](O)[C@H]2O)[C@H](O)[C@H]1O [Compound 4] | human galectin-3 (hGal-3) (Homo sapiens, UniProt P17931) | n Sites/ Monomer | 0.98 |
| CC(=O)N[C@H]1[C@H](Oc2ccc([N+](=O)[O-])cc2)O[C@H](CO)[C@@H](O[C@@H]2O[C@H](CO)[C@H](O)[C@H](O)[C@H]2O)[C@@H]1O [Compound 20] | human galectin-3 (hGal-3) (Homo sapiens, UniProt P17931) | n Sites/ Monomer | 1.05 |

Hi! Can you tell me n Sites/ Monomer for each of these compounds?
1. CO[C@@H]1O[C@H](CO)[C@@H](O[C@@H]2O[C@H](CO)[C@H](O)[C@H](O)[C@H]2O)[C@H](O)[C@H]1O [Compound 1, reference compound]
2. CC(=O)N[C@H]1[C@H](Oc2ccc([N+](=O)[O-])cc2)O[C@H](CO)[C@@H](O[C@@H]2O[C@H](CO)[C@H](O)[C@H](OS(=O)(=O)O)[C@H]2O)[C@@H]1O [Compound 23]
3. C#CCO[C@@H]1O[C@H](CO)[C@@H](O[C@@H]2O[C@H](CO)[C@H](O)[C@H](OS(=O)(=O)O)[C@H]2O)[C@H](O)[C@H]1O [Compound 11]
4. C#CCO[C@@H]1O[C@H](CO)[C@@H](O[C@@H]2O[C@H](CO)[C@H](O)[C@H](OCC(=O)O)[C@H]2O)[C@H](O)[C@H]1NC(C)=O [Compound 32]
5. O=[N+]([O-])c1ccc(O[C@@H]2O[C@H](CO)[C@@H](O[C@@H]3O[C@H](CO)[C@H](O)[C@H](O)[C@H]3O)[C@H](O)[C@H]2O)cc1 [Compound 6]
6. C#CCO[C@@H]1O[C@H](CO)[C@@H](O[C@@H]2O[C@H](CO)[C@H](O)[C@H](O)[C@H]2O)[C@H](O)[C@H]1NC(C)=O [Compound 27]

[1.08, 0.96, 1.08, 1.10, 1.10, 1.10]

* * *

target: human galectin-3 (hGal-3) (Homo sapiens); construct: P.K. and P.B. prepared recombinant full-length hGal-3 and contributed to the ITC experiments; made in house; assay: Isothermal titration calorimetry (ITC) of sugar analogs with recombinant hGal-3; type: binding; settings: 27 °C, calculated from ΔG = ΔH − TΔS, errors 1–7%
So I've got a bunch of molecules here, and I need their −TΔS values.
Numbers only, in kcal/mol.

Worked set:
| molecule | unit.name | −TΔS |
| --- | --- | --- |
| C#CCO[C@@H]1O[C@H](CO)[C@@H](O[C@@H]2O[C@H](CO)[C@H](O)[C@H](O)[C@H]2O)[C@H](O)[C@H]1NC(C)=O [Compound 27] | kcal/mol | -1.8 |
| CC(=O)N[C@H]1[C@H](Oc2ccc([N+](=O)[O-])cc2)O[C@H](CO)[C@@H](O[C@@H]2O[C@H](CO)[C@H](O)[C@H](O)[C@H]2O)[C@@H]1O [Compound 20] | kcal/mol | 1.2 |
| C#CCO[C@@H]1O[C@H](CO)[C@@H](O[C@@H]2O[C@H](CO)[C@H](O)[C@H](OS(=O)(=O)O)[C@H]2O)[C@H](O)[C@H]1O [Compound 11] | kcal/mol | -2.3 |

With those in mind, consider the next molecule.
Checklist item: −TΔS tested on human galectin-3 (hGal-3) (Homo sapiens), entry CC(=O)N[C@H]1[C@H](Oc2ccc([N+](=O)[O-])cc2)O[C@H](CO)[C@@H](O[C@@H]2O[C@H](CO)[C@H](O)[C@H](OS(=O)(=O)O)[C@H]2O)[C@@H]1O [Compound 23] , value? -3.0

* * *

target: human galectin-3 (hGal-3) (Homo sapiens); construct: P.K. and P.B. prepared recombinant full-length hGal-3 and contributed to the ITC experiments; made in house; experiment: Isothermal titration calorimetry (ITC) of sugar analogs with recombinant hGal-3; type: binding; conditions: 27 °C, calculated from ΔG = -RT ln(Ka), errors less than 2%
Could you mark each record MET if its −ΔG falls strictly under 6 kcal/mol, and NOT MET if it equals or exceeds it?

A selection of reference data follows.
| compound | class.assignment |
| --- | --- |
| CO[C@@H]1O[C@H](CO)[C@@H](O[C@@H]2O[C@H](CO)[C@H](O)[C@H](O)[C@H]2O)[C@H](O)[C@H]1O [Compound 1, reference compound] | MET |
| O=[N+]([O-])c1ccc(O[C@@H]2O[C@H](CO)[C@@H](O[C@@H]3O[C@H](CO)[C@H](O)[C@H](OS(=O)(=O)O)[C@H]3O)[C@H](O)[C@H]2O)cc1 [Compound 12] | NOT MET |
| CC(=O)N[C@H]1[C@H](Oc2ccc([N+](=O)[O-])cc2)O[C@H](CO)[C@@H](O[C@@H]2O[C@H](CO)[C@H](O)[C@H](OS(=O)(=O)O)[C@H]2O)[C@@H]1O [Compound 23] | NOT MET |
| C#CCO[C@@H]1O[C@H](CO)[C@@H](O[C@@H]2O[C@H](CO)[C@H](O)[C@H](OS(=O)(=O)O)[C@H]2O)[C@H](O)[C@H]1NC(C)=O [Compound 30] | NOT MET |
| C#CCOC1OC(CO)C(OC2OC(CO)C(O)C(OC3(C(=O)O)CC(O)C(NC(C)=O)C(C(O)C(O)CO)O3)C2O)C(O)C1NC(C)=O (centres unmarked) [Compound 33] | MET |

Next up:
Does this compound meet the criterion −ΔG < 6 kcal/mol? C#CCO[C@@H]1O[C@H](CO)[C@@H](O[C@@H]2O[C@H](CO)[C@H](O)[C@H](OCC(=O)O)[C@H]2O)[C@H](O)[C@H]1NC(C)=O [Compound 32] MET

* * *

target: human galectin-3 (hGal-3) (Homo sapiens, UniProt P17931); construct: P.K. and P.B. prepared recombinant full-length hGal-3 and contributed to the ITC experiments; made in house; assay: Isothermal titration calorimetry (ITC) of sugar analogs with recombinant hGal-3; type: binding; settings: 27 °C, binding enthalpy, lectin monomer units, errors 1–4%
readout.name: −ΔH (kcal/mol)
One number for each entry, in kcal/mol.

Batch request: −ΔH per item, same order as input.
1. C#CCO[C@@H]1O[C@H](CO)[C@@H](O[C@@H]2O[C@H](CO)[C@H](O)[C@H](OCC(=O)O)[C@H]2O)[C@H](O)[C@H]1NC(C)=O
2. C#CCOC1OC(CO)C(OC2OC(CO)C(O)C(OC3(C(=O)O)CC(O)C(NC(C)=O)C(C(O)C(O)CO)O3)C2O)C(O)C1NC(C)=O (centres unmarked)
3. C#CCO[C@@H]1O[C@H](CO)[C@@H](O[C@@H]2O[C@H](CO)[C@H](O)[C@H](OS(=O)(=O)O)[C@H]2O)[C@H](O)[C@H]1O
4. CC(=O)N[C@H]1[C@H](Oc2ccc([N+](=O)[O-])cc2)O[C@H](CO)[C@@H](O[C@@H]2O[C@H](CO)[C@H](O)[C@H](OS(=O)(=O)O)[C@H]2O)[C@@H]1O
5. CO[C@@H]1O[C@H](CO)[C@@H](O[C@@H]2O[C@H](CO)[C@H](O)[C@H](O)[C@H]2O)[C@H](O)[C@H]1O [Compound 1, reference compound]

1: 4.3; 2: 5.9; 3: 3.8; 4: 3.3; 5: 3.9

* * *

target: human galectin-3 (hGal-3) (Homo sapiens, UniProt P17931); construct: P.K. and P.B. prepared recombinant full-length hGal-3 and contributed to the ITC experiments; made in house; assay: Isothermal titration calorimetry (ITC) of sugar analogs with recombinant hGal-3; type: binding; settings: 27 °C, calculated from ΔG = ΔH − TΔS, errors 1–7%
readout.name: −TΔS (kcal/mol)
Numbers only, in kcal/mol.

| compound | obs.value |
| --- | --- |
| O=[N+]([O-])c1ccc(O[C@@H]2O[C@H](CO)[C@@H](O[C@@H]3O[C@H](CO)[C@H](O)[C@H](O)[C@H]3O)[C@H](O)[C@H]2O)cc1 | -2.2 |
| C#CCOC1OC(CO)C(OC2OC(CO)C(O)C(OC3(C(=O)O)CC(O)C(NC(C)=O)C(C(O)C(O)CO)O3)C2O)C(O)C1NC(C)=O (stereo not drawn) | 0.2 |

Would you be so kind as to report −TΔS for each listed record?
1. O=[N+]([O-])c1ccc(O[C@@H]2O[C@H](CO)[C@@H](O[C@@H]3O[C@H](CO)[C@H](O)[C@H](OS(=O)(=O)O)[C@H]3O)[C@H](O)[C@H]2O)cc1
2. C#CCO[C@@H]1O[C@H](CO)[C@@H](O[C@@H]2O[C@H](CO)[C@H](O)[C@H](OS(=O)(=O)O)[C@H]2O)[C@H](O)[C@H]1NC(C)=O
3. CO[C@@H]1O[C@H](CO)[C@@H](O[C@@H]2O[C@H](CO)[C@H](O)[C@H](O)[C@H]2O)[C@H](O)[C@H]1O [Compound 1, reference compound]
4. C#CCO[C@@H]1O[C@H](CO)[C@@H](O[C@@H]2O[C@H](CO)[C@H](O)[C@H](O)[C@H]2O)[C@H](O)[C@H]1O

-0.4
-1.4
-1.6
-0.2
